PROTOCOL_DETAILS: Water solubility at different pH values
Format: physicochemical
CONDITION_INFO: pH 7.4, thermodynamic from solid, pH 7.4; read-out: Solubility
METRIC_NAME: solubility (mg/mL)
The reply should contain only the number, in mg/mL.

Report solubility for C[C@@H](OC[C@@]1(c2ccccc2)CC[C@]2(CCC(=O)N2)CN1C(=O)OCOP(=O)(O)O)c1cc(C(F)(F)F)cc(C(F)(F)F)c1 please.
26

---

PROTOCOL_DETAILS: Pharmacokinetic test in cynomolgus monkeys
Assay type: in vivo
CONDITION_INFO: cynomolgus monkey; analyte compound of formula (I) in plasma; intravenous drip about 30 min, 3.54 mg/kg compound of formula (I); read-out: MRT 0-∞
METRIC_NAME: MRT inf (min)
State just the number; it will be interpreted in min.

Endpoint output: MRT inf of C[C@@H](OC[C@@]1(c2ccccc2)CC[C@]2(CCC(=O)N2)CN1C(=O)OCOP(=O)(O)O)c1cc(C(F)(F)F)cc(C(F)(F)F)c1 . Value?
15.6
